Values were extracted from the supplement of paper PMC9112550.

# Test system: Escherichia coli TOP10
# PROTOCOL: shrunken log2 fold change of peptide-encoding DNA abundance (4.5 h post-induction vs induction); higher = less antimicrobial activity (less host growth inhibition)
# CONDITION_CONTEXT: time post-induction: 4.5 h; library: site-saturation at positions 5, 18, 19, 20
List of shrunken log2 fold change values.
Provide a numeric answer; units are not to be included.

[
  {
    "SEQUENCE_ENTRY": "RRIRQRPPRLPRPRPRPWTKPRP",
    "VALUE_REPORTED": -0.00887
  }
]

# shrunken log2 fold change lookup, item RRIRIRPPRLPRPRPRPWDWPRP 0.0472

###

# System: Escherichia coli TOP10
# PROTOCOL: shrunken log2 fold change of peptide-encoding DNA abundance (4.5 h post-induction vs induction); higher = less antimicrobial activity (less host growth inhibition)
# CONDITION_CONTEXT: time post-induction: 4.5 h; library: site-saturation at positions 5, 18, 19, 20
REPORTED_ENDPOINT: shrunken log2 fold change
Answer using only a numeral; do not append any unit.

For the sequence RRIRYRPPRLPRPRPRPVMIPRP , what shrunken log2 fold change is on record? -0.596

Try RRIRPRPPRLPRPRPRPKVIPRP next. -0.172

What do we get for RRIRGRPPRLPRPRPRPAMFPRP ? 0.455

###

# System: Escherichia coli TOP10
# PROTOCOL: shrunken log2 fold change of peptide-encoding DNA abundance (4.5 h post-induction vs induction); higher = less antimicrobial activity (less host growth inhibition)
# CONDITION_CONTEXT: time post-induction: 4.5 h; library: site-saturation at positions 5, 18, 19, 20
Label scheme for shrunken log2 fold change: lower than -0.09 is false (0), -0.09 and above is true (1).

[
  {
    "SEQUENCE_ENTRY": "RRIRFRPPRLPRPRPRPPFMPRP",
    "LABEL_CLASS": "true (1)"
  }
]

State whether the measured shrunken log2 fold change reaches -0.09, counting equality as reaching it, for RRIRERPPRLPRPRPRPPYGPRP false (0)

Could you do the same for RRIRTRPPRLPRPRPRPAQQPRP , please? true (1)

Moving on to the next sequence: RRIRVRPPRLPRPRPRPPYNPRP false (0)

What do you have for RRIRMRPPRLPRPRPRPYSKPRP ? false (0)

Here is the next sequence: RRIRMRPPRLPRPRPRPHKWPRP true (1)

Query RRIRIRPPRLPRPRPRPIMSPRP next true (1)

Next sequence: RRIRIRPPRLPRPRPRPALNPRP false (0)

// query: RRIRSRPPRLPRPRPRPADEPRP true (1)

RRIRSRPPRLPRPRPRPHGWPRP , same question. false (0)

###

# Tested on: Escherichia coli TOP10;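 further: peptides expressed intracellularly from a pBAD plasmid library in pooled LB shake-flask culture, induced with 0.3% L-arabinose, DNA abundance read by NGS, three biological replicates, DESeq2 with apeglm shrinkage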
# PROTOCOL: shrunken log2 fold change of peptide-encoding DNA abundance (4.5 h post-induction vs induction); higher = less antimicrobial activity (less host growth inhibition)
# CONDITION_CONTEXT: time post-induction: 4.5 h; library: site-saturation at positions 5, 18, 19, 20
REPORTED_ENDPOINT: shrunken log2 fold change
Lab note: record the figure alone, no unit after it.

[
  {
    "SEQUENCE_ENTRY": "RRIRERPPRLPRPRPRPTVKPRP",
    "shrunken log2 fold change": -0.218
  },
  {
    "SEQUENCE_ENTRY": "RRIRGRPPRLPRPRPRPYAEPRP",
    "shrunken log2 fold change": 1.19
  },
  {
    "SEQUENCE_ENTRY": "RRIRTRPPRLPRPRPRPCKAPRP",
    "shrunken log2 fold change": -0.00146
  },
  {
    "SEQUENCE_ENTRY": "RRIRMRPPRLPRPRPRPRPFPRP",
    "shrunken log2 fold change": 0.647
  },
  {
    "SEQUENCE_ENTRY": "RRIRNRPPRLPRPRPRPTAGPRP",
    "shrunken log2 fold change": 0.0608
  },
  {
    "SEQUENCE_ENTRY": "RRIRMRPPRLPRPRPRPCIEPRP",
    "shrunken log2 fold change": -0.122
  }
]

Look up shrunken log2 fold change: RRIRPRPPRLPRPRPRPWMEPRP -0.0134

Thanks! And RRIRWRPPRLPRPRPRPYIEPRP ? -0.629

Now the same for RRIRTRPPRLPRPRPRPGQNPRP 0.138

Could you do the same for RRIRWRPPRLPRPRPRPINCPRP , please? -0.889

Here is the next sequence: RRIRHRPPRLPRPRPRPDKIPRP -0.042

Now the same for RRIRQRPPRLPRPRPRPQTDPRP 0.00346

Another sequence: RRIRYRPPRLPRPRPRPGMTPRP 0.0238
